# assayed system: T1, biotin-peptide KNNVRQFAS (human)
# T1 peptide: Biotin-KNNVRQFAS
# method summary: ELISA biotin-peptide; scFv 10 ug/mL; repI
Where no end group is shown, it is not given here. The star is where a group is joined. Biotin = O=C1N[C@H]2[C@H](CS[C@H]2CCCCC(=O)*)N1
OD450 values for the binders below.
Dear colleague, please send the value followed by its unit.

Look over these answered cases.
{"columns": ["binder", "OD450"],
 "data": [
  ["Comparative antibody 3 (Comp-3) scFv, SR_92R (Somovilla-Crespo et al. 2018), His-tagged (scFv) scFv: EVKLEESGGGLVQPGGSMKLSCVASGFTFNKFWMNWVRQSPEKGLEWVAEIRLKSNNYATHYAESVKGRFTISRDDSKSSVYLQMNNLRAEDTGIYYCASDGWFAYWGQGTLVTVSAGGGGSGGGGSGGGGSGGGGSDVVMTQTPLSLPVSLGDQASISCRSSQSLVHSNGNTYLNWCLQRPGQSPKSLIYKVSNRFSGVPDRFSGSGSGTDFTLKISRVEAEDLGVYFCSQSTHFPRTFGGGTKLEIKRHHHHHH", "0.09 OD"],
  ["CCR9_HUM2 scFv (humanized anti-CCR9 scFv, SEQ ID NO: 17 with C-terminal 6xHis tag) (scFv) scFv: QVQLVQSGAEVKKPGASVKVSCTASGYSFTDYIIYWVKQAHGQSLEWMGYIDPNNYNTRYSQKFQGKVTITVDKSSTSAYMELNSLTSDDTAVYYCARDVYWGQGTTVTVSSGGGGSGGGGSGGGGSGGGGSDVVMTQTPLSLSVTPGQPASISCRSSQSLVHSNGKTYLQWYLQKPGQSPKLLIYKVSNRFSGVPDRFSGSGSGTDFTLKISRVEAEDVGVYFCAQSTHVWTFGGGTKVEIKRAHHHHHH", "0.07 OD"],
  ["Comparative antibody 1 (Comp-1) scFv, SEQ ID NO: 10 from WO2023/037125 A1, His-tagged (scFv) scFv: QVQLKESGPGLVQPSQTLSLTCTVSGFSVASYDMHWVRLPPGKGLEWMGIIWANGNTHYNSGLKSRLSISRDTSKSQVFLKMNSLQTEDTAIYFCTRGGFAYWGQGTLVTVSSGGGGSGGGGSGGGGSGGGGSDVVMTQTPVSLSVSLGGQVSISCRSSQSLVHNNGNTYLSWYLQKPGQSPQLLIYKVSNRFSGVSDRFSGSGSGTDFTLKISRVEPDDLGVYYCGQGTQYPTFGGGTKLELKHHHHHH", "0.05 OD"]
]}

// moving on: another record for OD450
Return the recorded OD450 value; entry: Comparative antibody 2 (Comp-2) scFv, 243LO326 (VH SEQ ID NO: 51 and VL SEQ ID NO: 52 of WO 2022/195028 A2), His-tagged (scFv) scFv: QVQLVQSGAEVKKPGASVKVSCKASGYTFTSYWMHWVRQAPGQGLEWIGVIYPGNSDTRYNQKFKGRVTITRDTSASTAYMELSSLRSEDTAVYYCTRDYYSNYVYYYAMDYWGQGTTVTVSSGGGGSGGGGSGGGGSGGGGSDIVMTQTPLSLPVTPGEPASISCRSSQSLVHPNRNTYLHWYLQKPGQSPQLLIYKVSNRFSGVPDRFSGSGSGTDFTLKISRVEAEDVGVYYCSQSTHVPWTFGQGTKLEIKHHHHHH
0.08 OD
